tested on: Rattus norvegicus; experiment: Diuretic activity after peroral administration of 100 mg/Kg in rats; format: functional, Urine
outcome measure: Relative activity (%)
Provide the reading as a plain figure in %.

INPUT: Provide measured Relative activity value, entry: "O=C(O)COc1cc2oc3ccccc3c(=O)c2cc1Cl"
OUTPUT: 200

---

system: Rattus norvegicus; test: Diuretic activity after peroral administration of 100 mg/Kg in rats; assay type: functional, Urine
Relative activity values by entry

The examples below pair each entry with its known result.
C[C@@]1(c2ccccc2)Cc2cc(OCC(=O)O)c(Cl)c(Cl)c2C1=O: 200%
O=C(O)COc1cc2c(=O)c3ccccc3oc2cc1Cl: 200%
O=C(O)C1Cc2cc3c(=O)c4ccccc4oc3c(Cl)c2O1 (centres undefined): 200%

INPUT: Hello, please tell me recorded Relative activity for this one: "O=C(c1cccs1)c1cc2c(c(Cl)c1Cl)O[C@H](C(=O)O)C2"
OUTPUT: 400%

INPUT: Read the entry O=C(O)C1Oc2cc3c(-c4ccccc4)noc3c(Cl)c2O1 (centres undefined) and write its reported Relative activity.
OUTPUT: 450%

INPUT: Hello, please tell me recorded Relative activity for this one: "O=C(c1cccs1)c1cc2c(c(Cl)c1Cl)O[C@@H](C(=O)O)C2"
OUTPUT: <100%

INPUT: Entry CC1(c2ccccc2)Cc2cc(OCC(=O)O)c(Cl)c(Cl)c2C1=O (racemic) [INDACRINONE] needs its Relative activity filled in; supply it.
OUTPUT: 300%

INPUT: Please look at this compound and report its Relative activity: O=C(c1cccs1)c1cc2c(c(Cl)c1Cl)OC(C(=O)O)C2 (racemic)
OUTPUT: 350%

INPUT: Output Relative activity of "C[C@]1(c2ccccc2)Cc2cc(OCC(=O)O)c(Cl)c(Cl)c2C1=O"
OUTPUT: 350%

Source of measurements: ChEMBL document CHEMBL1125197
